# target: DLG5_2, Q8TDM6
# Sequence (Q8TDM6 714-800): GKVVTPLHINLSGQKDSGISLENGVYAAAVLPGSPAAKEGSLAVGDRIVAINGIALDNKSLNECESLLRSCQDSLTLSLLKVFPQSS
# assay-details: holdup assay
# Set-up: key: below the threshold = too weak to quantify, mostly under pKd 3.1 to 4
# test-parameters: plain residues with an end cap or a label only (N-terminal biotin on a linker: ttds)
property-measured: pKd

binder="RPLPRKVSQL [DOCK4, Q8N1I0]" value_measured="below the threshold"
binder="RLQRRRETQV [HPV18-E6, P06463]" value_measured="below the threshold"
binder="QRQARSETLV [HPV59-E6, Q81964]" value_measured="below the threshold"
binder="RLPKIKETTV [FRMPD4, Q14CM0]" value_measured=4.7
